Source: the supplement of paper PMC10201428

sequences and their reported relative integration efficiency (log2)
# Test system: VchCAST RNA-guided transposition machinery (E. coli BL21(DE3) host, lacZ target)
# assay_text: relative integration efficiency (T-RL orientation) vs wild-type transposon end (log2 (normalized fold change)); transposon end mutated: right end (5 bp flank + 75 bp right end); higher = more efficient transposition
I'd appreciate a reply containing only the number, no unit.

sequence_chain=ACATTTGTTGATACAACCAATAAATGATAATTACCCCCATAAATTGATAATTGTGACACCGAATTTAACTATAACGCTCTGATCATAGTCAGACCAACATTGCTACGACCCGTATTCGCACCGACAC assay_metric="relative integration efficiency (log2)" value=-2.18
sequence_chain=ACATTTGTTGATACAACCATAAAATGATAATTACACCCATAAATTGATCCGGATCACACCCATAAATTGATATTGCCTCTGATCATAGTCAGACCAACATTGCTACGACCCGTATTCGCACCGACAC assay_metric="relative integration efficiency (log2)" value=-0.929

Now consider a different sequence.
The recorded relative integration efficiency (log2) for `ACATTTCAACATACAACCATAAAATGATAATTACACCCATAAATTGATAATTATCACACCCATAAATTGATATTGCCTCTGATCATAGTCAGACCAACATTGCTACGACCCGTATTCGCACCGACAC` is -6.21

* * *

# Tested on: VchCAST RNA-guided transposition machinery (E. coli BL21(DE3) host, lacZ target)
# assay_text: relative integration efficiency (T-RL orientation) vs wild-type transposon end (log2 (normalized fold change)); transposon end mutated: right end (5 bp flank + 75 bp right end); higher = more efficient transposition
assay_metric: relative integration efficiency (log2)

// relative integration efficiency (log2) (VchCAST RNA-guided transposition machinery (E. coli BL21(DE3) host, lacZ target)) for `ACATTTGTTGATACAACCATAAGTTGATATTTTCACCCATAAATTGATATTGCTCACAACCATATATTGATATCTCCTCTGATCATAGTCAGACCAACATTGCTACGACCCGTATTCGCACCGACAC` = -0.904

Tested system VchCAST RNA-guided transposition machinery (E. coli BL21(DE3) host, lacZ target); relative integration efficiency (log2) recorded for `ACATTTGTTGATACAACCATAAAATCATCATTACCCCCATCAATTGATAATTATCCCACCCAATTTAACTATAACGCTCTGATCATAGTCAGACCAACATTGCTACGACCCGTATTCGCACCGACAC` was -5.47

// relative integration efficiency (log2) (VchCAST RNA-guided transposition machinery (E. coli BL21(DE3) host, lacZ target)) for `ACATTTCTTCATACAACCATAAAATGATAATTACACCCATAAATTCATCATTATCACACCCAATTTAACTATAACGCTCTGATCATAGTCAGACCAACATTGCTACGACCCGTATTCGCACCGACAC` = -4.8

Value (relative integration efficiency (log2), VchCAST RNA-guided transposition machinery (E. coli BL21(DE3) host, lacZ target)) for record `ACATTTGTTGATACAACCATAAAATGATAATTACACCCATAAATTGATAATTATCACACCCATAAAGGTCGCGGTAAGAGGATCATAGTCAGACCAACATTGCTACGACCCGTATTCGCACCGACAC` = -0.82

Tested system VchCAST RNA-guided transposition machinery (E. coli BL21(DE3) host, lacZ target); relative integration efficiency (log2) recorded for `ACATTTGTTGATACAACCATAAAATGATAATTACACCCATAAATTGATAAGGCGCACACCCATAAATTGATATTGCCTCTGATCATAGTCAGACCAACATTGCTACGACCCGTATTCGCACCGACAC` was -0.436
